# Protocol details: Volume of distribution at steady state in Sprague-Dawley rat at 1 mg/kg, iv and 2 mg/kg, po
# Assay type: ADME, organism-based
# Measurement setup: in vivo, read-out: Vdss
# Vd per entry

| Smiles str | Unit text | Vd |
| --- | --- | --- |
| O=C([C@@H]1C[C@H]1c1ccc(C(F)(F)F)cc1)N1CCN(S(=O)(=O)c2cc(C3CC3)cc(C(F)(F)F)c2)CC1 | L/kg | 5.4 |
| O=C([C@@H]1C[C@H]1c1ccc(C(F)(F)F)cc1)N1CCN(S(=O)(=O)c2cc(-c3nnc[nH]3)cc(C(F)(F)F)c2)CC1 | L/kg | 3.8 |
| O=C(c1ccc(C(F)(F)F)cc1)N1CCN(S(=O)(=O)c2cc(C3CC3)cc(C(F)(F)F)c2)CC1 | L/kg | 2.7 |

* * *

# Target system: Cytochrome P450 2C8 (Homo sapiens)
# Sequence (P10632 whole entry): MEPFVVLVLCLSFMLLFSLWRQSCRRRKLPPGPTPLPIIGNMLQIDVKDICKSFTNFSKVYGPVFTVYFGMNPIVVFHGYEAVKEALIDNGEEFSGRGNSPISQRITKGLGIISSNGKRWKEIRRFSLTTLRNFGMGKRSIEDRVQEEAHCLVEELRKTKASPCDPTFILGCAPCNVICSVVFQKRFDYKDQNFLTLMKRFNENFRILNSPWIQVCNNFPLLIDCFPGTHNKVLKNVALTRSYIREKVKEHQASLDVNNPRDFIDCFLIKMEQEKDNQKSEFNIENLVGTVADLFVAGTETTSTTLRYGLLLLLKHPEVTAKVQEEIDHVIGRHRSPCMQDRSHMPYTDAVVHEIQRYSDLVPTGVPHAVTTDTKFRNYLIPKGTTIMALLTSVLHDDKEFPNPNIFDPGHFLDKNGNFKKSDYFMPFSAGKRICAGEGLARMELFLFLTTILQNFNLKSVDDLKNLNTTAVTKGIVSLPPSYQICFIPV
# Protocol details: Inhibition of CYP2C8
# Assay type: ADME

| Smiles str | Target system | IC50 / µM |
| --- | --- | --- |
| O=C([C@@H]1C[C@H]1c1ccc(C(F)(F)F)cc1)N1CCN(S(=O)(=O)c2cc(-c3nnc[nH]3)cc(C(F)(F)F)c2)CC1 | Cytochrome P450 2C8 (Homo sapiens) | 15 |

* * *

# Target system: Cannabinoid receptor 1 (Homo sapiens, UniProt P21554)
# Sequence (P21554 whole entry): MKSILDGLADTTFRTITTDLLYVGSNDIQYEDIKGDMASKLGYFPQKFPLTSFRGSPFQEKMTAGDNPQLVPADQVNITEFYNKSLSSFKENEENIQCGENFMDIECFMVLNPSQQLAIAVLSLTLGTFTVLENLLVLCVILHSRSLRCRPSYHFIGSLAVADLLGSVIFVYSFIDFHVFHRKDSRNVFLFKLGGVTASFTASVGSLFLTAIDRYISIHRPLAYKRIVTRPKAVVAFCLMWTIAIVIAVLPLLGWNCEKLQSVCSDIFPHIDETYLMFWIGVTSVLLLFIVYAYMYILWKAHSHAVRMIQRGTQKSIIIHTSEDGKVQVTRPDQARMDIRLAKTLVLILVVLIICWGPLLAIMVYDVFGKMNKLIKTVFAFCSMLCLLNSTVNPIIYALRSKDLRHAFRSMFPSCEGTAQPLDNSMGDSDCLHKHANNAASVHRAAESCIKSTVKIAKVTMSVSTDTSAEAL
# Protocol details: Agonist activity at human recombinant CB1R expressed in CHO cells assessed as inhibition of forskolin-stimulated cAMP level
# Type: functional, cell-based
pEC50: −log10 of the molar value.
Here the recorded pEC50 is given for each entry.

| Smiles str | pEC50 |
| --- | --- |
| O=C([C@@H]1C[C@H]1c1ccc(C(F)(F)F)cc1)N1CCN(S(=O)(=O)c2cc(C3CC3)cc(C(F)(F)F)c2)CC1 | 8.24 |
| O=C(c1ccc(C(F)(F)F)cc1)N1CCN(S(=O)(=O)c2cc(C3CC3)cc(C(F)(F)F)c2)CC1 | 8.89 |

* * *

# Target system: Cannabinoid receptor 1 (Homo sapiens, UniProt P21554)
# Protocol details: Displacement of [3H]CP-55940 from human recombinant CB1R expressed in CHO cells
# Type: cell-based
# label = rule met if IC50 < 6 nM else rule not met

| Compound | Label |
| --- | --- |
| Cc1[nH]ncc1-c1cc(C(F)(F)F)cc(S(=O)(=O)N2CCN(C(=O)[C@@H]3C[C@H]3c3ccc(C(F)(F)F)cc3)CC2)c1 | rule not met |
| O=C(C1CCCCC1)N1CCN(S(=O)(=O)c2cccc3ccccc23)CC1c1ccccc1 (configuration not stated) | rule not met |
| COc1cc(C(F)(F)F)cc(S(=O)(=O)N2CCN(C(=O)[C@@H]3C[C@H]3c3ccc(C(F)(F)F)cc3)CC2)c1 | rule met |
| O=C(C1CC1)N1CCN(S(=O)(=O)c2c(Cl)cc(Cl)cc2Cl)CC1 | rule not met |
| O=C(C1CCCCC1)N1CCN(S(=O)(=O)c2cccc(-c3ccccc3)c2)CC1 | rule not met |
| O=C(Cc1ccccc1C(F)(F)F)N1CCN(S(=O)(=O)c2cc(Cl)cc(Cl)c2)CC1 | rule not met |
| O=C(CCc1ccc(C(F)(F)F)cc1)N1CCN(S(=O)(=O)c2cc(Cl)cc(Cl)c2)CC1 | rule not met |
| O=C([C@@H]1C[C@H]1c1ccc(C(F)(F)F)cc1)N1CCN(S(=O)(=O)c2cc(-c3ncon3)cc(C(F)(F)F)c2)CC1 | rule met |
| O=C([C@@H]1C[C@H]1c1ccc(C(F)(F)F)cc1)N1CCN(S(=O)(=O)c2cc(-n3cncn3)cc(C(F)(F)F)c2)CC1 | rule not met |
| O=C([C@@H]1C[C@H]1c1ccc(C(F)(F)F)cc1)N1CCN(S(=O)(=O)c2cc(C3CC3)cc(C(F)(F)F)c2)CC1 | rule met |
| O=C([C@@H]1C[C@H]1c1ccc(C(F)(F)F)cc1)N1CCN(S(=O)(=O)c2cc(-n3cccn3)cc(C(F)(F)F)c2)CC1 | rule met |
| O=C([C@@H]1C[C@H]1c1ccc(C(F)(F)F)cc1)N1CCN(S(=O)(=O)c2cc(-n3nccn3)cc(C(F)(F)F)c2)CC1 | rule met |
| CC1(C)CN(S(=O)(=O)c2cccc3ccccc23)CCN1C(=O)C1CCCCC1 | rule not met |
| O=C(c1ccc(C(F)(F)F)cc1)N1CCN(S(=O)(=O)c2cc(C3CC3)cc(C(F)(F)F)c2)CC1 | rule not met |
| O=C([C@@H]1C[C@H]1c1ccc(C(F)(F)F)cc1)N1CCN(S(=O)(=O)c2cc(-c3n[nH]c(=O)o3)cc(C(F)(F)F)c2)CC1 | rule not met |
| O=C(C1CCCCC1)N1CCN(S(=O)(=O)c2cccc3ccccc23)CC1C(F)(F)F (configuration not stated) | rule not met |
